# MCC at 72 h per record follows
experiment: Cytotoxicity against HEL cells assessed as alteration in cell morphology after 3 days; type: cell-based; settings: human
parameter.measured: MCC at 72 h (µg/mL)

sample.smiles: Nc1nc2c(ncn2COCCO)c(=O)[nH]1
lt.gt.eq: >
number: 400
//
sample.smiles: Cc1cc(-c2ccc(O)cc2)cn2c(CSCCc3ccccc3)cnc12
lt.gt.eq: ≥
number: 100
//
sample.smiles: Cc1cc(-c2cccs2)cn2c(CSCCc3ccccc3)cnc12
lt.gt.eq: =
number: 20
//
sample.smiles: Cc1cc(I)c2ncc(CSCCc3ccccc3)n2c1
lt.gt.eq: ≥
number: 4
//
sample.smiles: Cc1cc(Br)cn2c(CSCCc3ccccc3)cnc12
lt.gt.eq: ≥
number: 2
//
sample.smiles: Cc1cc(-c2ccccc2)c2ncc(CSCCc3ccccc3)n2c1
lt.gt.eq: =
number: 20
//
sample.smiles: COc1cccc(-c2cc(C)cn3c(CSCCc4ccccc4)cnc23)c1
lt.gt.eq: =
number: 100
//
sample.smiles: Cc1cc(I)cn2c(CSCCc3ccccc3)cnc12
lt.gt.eq: ≥
number: 0.8
//
sample.smiles: Cc1cc(-c2ccccc2O)cn2c(CSCCc3ccccc3)cnc12
lt.gt.eq: =
number: 100
//
sample.smiles: Cc1cc(-c2ccc(O)cc2)c2ncc(CSCCc3ccccc3)n2c1
lt.gt.eq: =
number: 20

###

system: Human betaherpesvirus 5; experiment: Antiviral activity against HCMV AD169 in HEL cells assessed as reduction of virus plaque formation after 5 days; assay type: functional, organism-based; settings: Human betaherpesvirus 5, AD169, HEL, 120 h

sample.smiles: Cc1cc(I)c2ncc(CSCCc3ccccc3)n2c1
lt.gt.eq: >
EC50 / µg/mL: 0.8
--
sample.smiles: Cc1cc(-c2ccsc2)cn2c(CSCCc3ccccc3)cnc12
lt.gt.eq: >
EC50 / µg/mL: 0.8
--
sample.smiles: COc1cccc(-c2cc(C)c3ncc(CSCCc4ccccc4)n3c2)c1
lt.gt.eq: =
EC50 / µg/mL: 2.2
--
sample.smiles: Cc1cc(-c2ccccc2O)cn2c(CSCCc3ccccc3)cnc12
lt.gt.eq: >
EC50 / µg/mL: 100
--
sample.smiles: Cc1cc(-c2ccccc2)c2ncc(CSCCc3ccccc3)n2c1
lt.gt.eq: >
EC50 / µg/mL: 4
--
sample.smiles: Cc1cc(-c2cccc(C#N)c2)cn2c(CSCCc3ccccc3)cnc12
lt.gt.eq: =
EC50 / µg/mL: 2.2
--
sample.smiles: Cc1cc(-c2ccc(C#N)cc2)cn2c(CSCCc3ccccc3)cnc12
lt.gt.eq: =
EC50 / µg/mL: 1.8
--
sample.smiles: Cc1cc(-c2cccs2)c2ncc(CSCCc3ccccc3)n2c1
lt.gt.eq: =
EC50 / µg/mL: 2.5
--
sample.smiles: Nc1nc2c(ncn2COC(CO)CO)c(=O)[nH]1
lt.gt.eq: =
EC50 / µg/mL: 0.51
--
sample.smiles: Cc1cc(-c2ccc(O)cc2)cn2c(CSCCc3ccccc3)cnc12
lt.gt.eq: >
EC50 / µg/mL: 100
--
sample.smiles: COc1ccc(-c2cc(C)c3ncc(CSCCc4ccccc4)n3c2)cc1
lt.gt.eq: =
EC50 / µg/mL: 3.1
--
sample.smiles: c1ccc(CCSCc2cnc3ccc(-c4ccccc4)cn23)cc1
lt.gt.eq: >
EC50 / µg/mL: 0.8
--
sample.smiles: Cc1cc(-c2ccc(O)cc2)c2ncc(CSCCc3ccccc3)n2c1
lt.gt.eq: =
EC50 / µg/mL: 2.2
--
sample.smiles: Cc1cc(-c2cccc(O)c2)cn2c(CSCCc3ccccc3)cnc12
lt.gt.eq: =
EC50 / µg/mL: 2.2
--
sample.smiles: Cc1cc(-c2cccc([N+](=O)[O-])c2)c2ncc(CSCCc3ccccc3)n2c1
lt.gt.eq: >
EC50 / µg/mL: 100
--
sample.smiles: Cc1cc(-c2cccc(O)c2)c2ncc(CSCCc3ccccc3)n2c1
lt.gt.eq: >
EC50 / µg/mL: 4
--
sample.smiles: Cc1cc(I)cn2c(CSCCc3ccccc3)cnc12
lt.gt.eq: >
EC50 / µg/mL: 0.16

Data provenance: ChEMBL document CHEMBL1140488
